# Tested on: U2OS
# test: Multiplex assay against U2OS
# Format: toxicity, cell-based
# details: human, 12 h, 1 µM, compound concentration 1 uM, replicate 2
outcome measure: Population Normal (%)
Kindly provide the numeric value in % only, without the unit symbol.

Example cases with answers are listed next.
>  <molecule>
Cc1c(Cc2ccc3ccccc3n2)c2cc(F)ccc2n1CC(=O)O

>  <Population Normal (%)>
98

$$$$
>  <molecule>
COCCCN1CCC(NC(=O)c2cc(Cl)c(N)c3c2OCC3)CC1 [PRUCALOPRIDE]

>  <Population Normal (%)>
99

$$$$
>  <molecule>
Cn1cc(C(=O)OCC2CCN(CCNS(C)(=O)=O)CC2)c2ccccc21

>  <Population Normal (%)>
100

$$$$
>  <molecule>
CCC(=O)OCC(=O)[C@@]1(OC(=O)CC)[C@@H](C)C[C@H]2[C@@H]3CCC4=CC(=O)C=C[C@]4(C)[C@@]3(Cl)[C@@H](O)C[C@@]21C [BECLOMETHASONE DIPROPIONATE]

>  <Population Normal (%)>
99

$$$$
>  <molecule>
S=C(NCCCc1c[nH]cn1)NCCCN(Cc1ccc(Cl)c(Cl)c1)c1ccc(Br)cn1

>  <Population Normal (%)>
96

$$$$

Prompt line: Item CN(C)C/C=C/C(=O)Nc1ccc(C(=O)N2CCCC(Nc3ncc(Cl)c(-c4c[nH]c5ccccc45)n3)C2)cc1 (centres undefined) : provide Population Normal (%)
Response line: 99

Prompt line: Item COCCn1c(C)c(C)s/c1=N\C(=O)C1C(C)(C)C1(C)C : provide Population Normal (%)
Response line: 100

Prompt line: Item CC(C)(O)C(=O)N1CCN(c2ccc(C(F)(F)F)c(C3=C(c4c[nH]c5ccccc45)C(=O)NC3=O)c2)CC1 : provide Population Normal (%)
Response line: 98

Prompt line: Item COc1ccc2c(c1OCc1ccccc1)C[C@@H](C(=O)O)N(C(=O)C(c1ccccc1)c1ccccc1)C2 : provide Population Normal (%)
Response line: 96
